FYI, the data here is from patent US20220395487A1.

# STUDY TARGET: RIG-I (Homo sapiens)
# ASSAY INFO: NADH-coupled ATPase assay
# Assay type: biochemical
# Design: The native, full-length protein was expressed and purified using methods adapted from published protocols; SUMO (pET-SUMO vector; captured on Ni-NTA) (N, cleaved yes); made in house; host or cells: Rosetta II(DE3) Escherichia coli
# EXPERIMENTAL SETUP: NADH-coupled ATPase assay; read-out: IC50 value in the coupled assay system
MEASURE NAME: IC50 (µM)
Respond with the bare value in µM.

Name the value of IC50 reported for `CC1(C)C(=O)N=C2C1=C(O)C(=O)c1ccccc12` when tested on RIG-I (Homo sapiens). 12

---

# STUDY TARGET: UniProtKB O95786
# ASSAY INFO: ADP-Glo ATPase assay
# Type: biochemical
# Design: The native, full-length protein was expressed and purified using methods adapted from published protocols; SUMO (pET-SUMO vector; captured on Ni-NTA) (N, cleaved yes); made in house; host or cells: Rosetta II(DE3) Escherichia coli
# EXPERIMENTAL SETUP: Poly I:C RNA activation, read-out: apparent IC50, RIG-I ATPase inhibition
MEASURE NAME: IC50 (µM)
Just the number please, in µM, no unit attached.

Give reported IC50 value for `CC1(C)C(=O)N=C2C1=C(O)C(=O)c1ccccc12` 19

---

# STUDY TARGET: RIG-I (Homo sapiens, UniProt O95786)
# Sequence (O95786 1-925): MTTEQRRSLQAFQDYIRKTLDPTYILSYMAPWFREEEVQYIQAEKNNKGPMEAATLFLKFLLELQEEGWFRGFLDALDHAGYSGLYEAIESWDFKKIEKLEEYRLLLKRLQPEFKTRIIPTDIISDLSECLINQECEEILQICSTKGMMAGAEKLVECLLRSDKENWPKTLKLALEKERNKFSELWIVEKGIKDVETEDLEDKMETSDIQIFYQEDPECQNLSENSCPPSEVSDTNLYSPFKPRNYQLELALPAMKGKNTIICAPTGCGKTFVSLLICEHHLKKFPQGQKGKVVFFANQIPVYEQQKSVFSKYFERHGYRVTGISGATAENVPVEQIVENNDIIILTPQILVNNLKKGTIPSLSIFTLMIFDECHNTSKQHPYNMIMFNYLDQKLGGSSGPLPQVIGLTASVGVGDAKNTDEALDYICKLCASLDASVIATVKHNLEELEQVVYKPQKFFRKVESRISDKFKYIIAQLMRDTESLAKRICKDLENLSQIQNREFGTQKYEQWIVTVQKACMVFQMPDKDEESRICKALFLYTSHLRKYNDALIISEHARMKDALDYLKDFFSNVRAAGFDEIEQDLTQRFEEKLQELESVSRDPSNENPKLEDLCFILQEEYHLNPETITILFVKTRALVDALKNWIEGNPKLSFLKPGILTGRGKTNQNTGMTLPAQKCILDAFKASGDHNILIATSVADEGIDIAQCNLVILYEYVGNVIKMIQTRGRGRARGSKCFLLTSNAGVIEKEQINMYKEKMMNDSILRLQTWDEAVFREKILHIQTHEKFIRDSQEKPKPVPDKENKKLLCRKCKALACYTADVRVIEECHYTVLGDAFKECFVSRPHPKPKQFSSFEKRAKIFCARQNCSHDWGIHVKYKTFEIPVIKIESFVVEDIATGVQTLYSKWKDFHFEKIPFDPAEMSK
# ASSAY INFO: IFN-β/Firefly dual-luciferase reporter assay in HEK 293T cells transfected with hRIG-I
# Type: cell-based
# EXPERIMENTAL SETUP: HEK293T cells, SLR14 challenge, compound in growth medium; read-out: IC50, inhibition of RIG-I signaling (IFN induction luciferase)
The reader will find reported IC50 values listed item by item below.
Answer format: numeric, nM implied, no suffix.

                                item_smiles  measure_name  unit_of_measure  experimental_value
0  CC1(C)C(=O)N=C2C1=C(OCc1ccc3ccccc3c1)C(=O)c1ccccc12          IC50               nM                1360

# evaluate next
Give recorded IC50. `CCC1(CC)C(=O)N=C2C1=C(OCc1ccccc1)C(=O)c1ccccc12` 1250

---

Known pIC50 of a selection of compounds
# STUDY TARGET: UniProtKB O95786
# Sequence (O95786 1-925): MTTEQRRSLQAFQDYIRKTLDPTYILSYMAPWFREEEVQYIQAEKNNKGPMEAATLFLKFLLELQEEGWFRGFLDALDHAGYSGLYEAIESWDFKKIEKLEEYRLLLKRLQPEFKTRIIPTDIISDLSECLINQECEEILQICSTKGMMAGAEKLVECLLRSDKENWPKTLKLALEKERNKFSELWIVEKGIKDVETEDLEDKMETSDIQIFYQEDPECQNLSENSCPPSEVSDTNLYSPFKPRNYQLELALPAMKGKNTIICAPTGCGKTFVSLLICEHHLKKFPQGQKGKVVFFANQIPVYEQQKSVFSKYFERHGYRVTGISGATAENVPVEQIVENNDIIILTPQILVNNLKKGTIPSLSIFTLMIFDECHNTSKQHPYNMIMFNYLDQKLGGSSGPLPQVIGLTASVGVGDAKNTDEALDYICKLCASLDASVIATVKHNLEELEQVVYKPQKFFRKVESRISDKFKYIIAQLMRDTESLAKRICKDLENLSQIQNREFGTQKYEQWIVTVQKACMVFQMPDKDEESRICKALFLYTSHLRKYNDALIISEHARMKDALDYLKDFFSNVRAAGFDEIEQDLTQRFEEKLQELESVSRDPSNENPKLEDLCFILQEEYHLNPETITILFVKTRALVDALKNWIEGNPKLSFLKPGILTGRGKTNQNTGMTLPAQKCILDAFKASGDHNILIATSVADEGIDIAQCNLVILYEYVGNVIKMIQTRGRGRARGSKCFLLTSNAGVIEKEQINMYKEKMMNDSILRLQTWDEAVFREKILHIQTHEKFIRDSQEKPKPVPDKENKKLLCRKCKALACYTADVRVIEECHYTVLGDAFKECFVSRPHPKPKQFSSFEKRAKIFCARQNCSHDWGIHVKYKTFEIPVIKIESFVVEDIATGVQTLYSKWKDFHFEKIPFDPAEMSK
# ASSAY INFO: NADH-coupled ATPase assay
# Assay type: biochemical
# Parameters: The native, full-length protein was expressed and purified using methods adapted from published protocols; SUMO (pET-SUMO vector; captured on Ni-NTA) (N, cleaved yes); made in house; host or cells: Rosetta II(DE3) Escherichia coli
# EXPERIMENTAL SETUP: NADH-coupled ATPase assay, SLR10-OH activated; mean ± standard deviation, 3 measurements; read-out: IC50
# Protocol: In this case, RIG-I was activated by a well-defined synthetic RNA hairpin duplex (SLR10-OH), which was added to a final concentration of 250 nM. […] The rate of ATP hydrolysis was determined indirectly by monitoring the conversion of NADH to NAD^+ that results in a loss of sample absorbance at 340 nm. Absorbance was measured over a 20 min time course using a sweeping read at 10 second intervals and a gain setting of 120 on a Biotek Synergy H1 Plate Reader. […]
Lab note — pIC50 values are minus log10 of concentrations in M.

Would you please look over these solved cases?
>>> df
                                   compound  experimental_value
0  COC1=C2C(=NC(=O)C2(C)C)c2ccccc2C1=O [RIG002]                5.20
1  O=C1C(O)=C2C(=NC(=O)C23CCCCC3)c2ccccc21 [RIG009]                5.62
2  CCC1(CC)C(=O)N=C2C1=C(O)C(=O)c1ccccc12 [RIG011]                6.05
3  CC1(C)C(=O)N=C2C1=C(OCc1ccc3ccccc3c1)C(=O)c1ccccc12 [RIG013]                5.68
4  CCC1(CC)C(=O)N=C2C1=C(OCc1ccccc1)C(=O)c1ccccc12 [RIG012]                6.15

Give reported pIC50 for CCOC1=C2C(=NC(=O)C2(C)C)c2ccccc2C1=O [RIG007] (UniProtKB O95786) 5.74

GET pIC50 where system = UniProtKB O95786 and item = CC(C)COC1=C2C(=NC(=O)C2(C)C)c2ccccc2C1=O [RIG006] 5.68

Give pIC50 only, for CC1(C)C(=O)N=C2C1=C(OCc1nc3ccccc3[nH]1)C(=O)c1ccccc12 [RIG008] , using UniProtKB O95786 data. 5.74

Determine reported pIC50 for CC1(C)C(=O)N=C2C1=C(OCc1ccccc1)C(=O)c1ccccc12 [RIG005] ; test system: UniProtKB O95786. 5.59

Recall the reported pIC50 of O=C1C(OCc2ccccc2)=C2C(=NC(=O)C23CCCCC3)c2ccccc21 [RIG010] when tested on UniProtKB O95786. 5.33
